Each record here notes measured TGI.
- Tested on: SN12C renal
- run.description: NCI tumour cell line growth inhibition, 48 h
property.name: TGI

# compound, property.name, observed
measured = [
    ("Cc1[nH]c2ccccc2c1C1=CC(=O)C=CC1=O", "TGI", "32 µM"),
    ("O=C1CCCC(=O)C1C(=O)c1ccc(C(F)(F)F)cc1[N+](=O)[O-]", "TGI", "> 100 µM"),
    ("CCCCC/C=C\\C/C=C/CCCCCCCCNC(=O)Nc1ccc([N+](=O)[O-])cc1", "TGI", "> 100 µM"),
    ("COc1cc2c(cc1O)-c1c(OC)c(O)cc3c1C(C2)N(C)CC3 (stereo unspecified)", "TGI", "> 100 µM"),
    ("CCCCCCCSCC1OC(n2cnc3c(N)ncnc32)C(O)C1O (stereo unspecified)", "TGI", "65.4 µM"),
    ("O=C(Oc1ccc(OC(Oc2ccccc2)c2ccccc2)cc1)c1ccccc1 (stereo unspecified)", "TGI", "> 31.6 µM"),
    ("CC1C(=O)CC[C@@]2(C)C(=O)CCCC12O (stereo partly specified)", "TGI", "> 100 µM"),
    ("COc1ccc(OC)c(-c2cc(C(=O)O)c3cc4ccccc4cc3n2)c1", "TGI", "> 100 µM"),
    ("N#Cc1nc(NC(=O)c2ccccc2)sc1N", "TGI", "> 10 µM"),
    ("O=C1C(Cl)=C(Nc2ccccn2)C(=O)c2ccccc21", "TGI", "5.17 µM"),
    ("CCOC(=O)NN(C(=O)OCC)C(C(=O)c1ccc(Cl)cc1)=C1NCCN1", "TGI", "> 100 µM"),
]

----------
- Test system: SK-MEL-2 melanoma
- run.description: NCI tumour cell line growth inhibition, 48 h
Where a SMILES comes first, the peptide text is derived from it. The star is where a group is joined. Boc = CC(C)(C)OC(=O)*; OBn = c1ccc(CO*)cc1
property.name: TGI

# compound, observed
rows = [
    ("CC(C)C(NC(=O)CNC(=O)C1CCCN1C(=O)C(NC(=O)OC(C)(C)C)C(C)C)C(=O)NCC(=O)OCc1ccccc1 (centres undefined) (Boc-VPGVG-OBn; configuration not given here)", "> 100 µM"),
    ("CC(C)NCCCCCNc1cc(O)cc2cccnc12", "> 100 µM"),
    ("[O]=[W](=[O])([OH])[OH]", "> 100 µM"),
    ("Cc1cn2c(/C=N/N=C(N)N)c(-c3cc(Cl)sc3Cl)nc2s1", "> 50 µM"),
    ("COc1cccc(N2C(=O)[C@H]3[C@H]4CC(C(C)(C)C)CC[C@H]4c4c([nH]c5ccccc45)[C@H]3C2=O)c1 (some centres undefined)", "40.3 µM"),
    ("C=CCN1C[C@@H](C)N([C@@H](c2ccccc2)c2ccc(C(=O)N(CC)CC)cc2)C[C@@H]1C", "> 100 µM"),
    ("Cc1cc(S(=O)(=O)Nc2nc(N)nc(N(C)C)n2)c(SC(C(=O)O)c2ccccc2)cc1Cl (centres undefined)", "> 10 µM"),
    ("Cc1ccc(Nc2cc(=O)[nH]c(=O)[nH]2)cc1CS", "> 100 µM"),
    ("CCOC1=C2C(C)(CCC3[C@@]4(C)C=CC(=O)C(C)(C)C4CC(O)[C@@]23C)C(c2ccoc2)C1=O (some centres undefined)", "43.4 µM"),
]

----------
Record type: GI50 measurement. Applies to: MDA-MB-435

# compound, GI50
records = [
    ("COC(=O)c1cc(NC(=O)CN(CCN(CC(=O)O)CC(=O)Nc2ccc(O)c(C(=O)OC)c2)CC(=O)O)ccc1O", "> 100 µM"),
    ("O=C(Nc1cccc(-n2cc(-c3ccncc3)c(-c3ccc(O)c(Cl)c3)n2)c1)c1ccc(N2CCOCC2)c(C(F)(F)F)c1", "5 µM"),
    ("Cc1cccc2c1NC(=O)C2(c1ccc(O)cc1)c1ccc(O)cc1", "15.4 µM"),
    ("C/C=C1\\C[C@@H]2C(OC)Nc3cc(O)c(OC)cc3C(=O)N2C1 (stereo not given in full)", "0.00819 µM"),
    ("CCCC(=O)Nc1ncnc2c1ncn2C1OC2COP(=O)(O)OC2C1OC(=O)CCC (stereo not given)", "> 1000 µM"),
    ("CNC(=O)c1c(NC(=O)c2ccc(C(C)C)cc2)sc2c1CCC(=O)C2", "1.07 µM"),
    ("COc1cc([N+](=O)[O-])c(OC)cc1-c1nc2n(c1/C(N)=N/C(=N)N)CCS2", "> 100 µM"),
    ("Cc1csc(-c2ccc3c(c2)COC3(CCCN(C)C)c2ccc(F)cc2)c1 (stereo not given)", "1.69 µM"),
    ("N=C(N)c1ccc(-c2ccc(-c3ccc(Cl)c(Cl)c3)o2)nc1", "1.78 µM"),
    ("O=C1C(Cl)=C(Nc2cccc(O)c2)C(=O)N1c1ccc(Cl)cc1Cl", "30.7 µM"),
]

----------
Quick reference for GI50 among some molecules
- System: HCT-15 colon
- run.description: NCI tumour cell line growth inhibition, 48 h

# molecule, GI50
records = [
    ("c1ccc(C2=NN[C@H](c3cn(-c4ccccc4)nc3-c3ccccc3)C2)cc1", "> 100 µM"),
    ("O=C(O)CP(=O)(c1ccccc1)c1ccccc1.O=C(O)CP(=O)(c1ccccc1)c1ccccc1.[Cd]", "9.21 µM"),
    ("Cc1cccc2c1NC(=O)C2(c1ccc(O)cc1)c1ccc(O)cc1", "0.53 µM"),
    ("O=C(OC(CNc1c(C(=O)c2ccccc2)c(=O)n(Cc2ccccc2)c(=O)n1Cc1ccccc1)CN1CCCCC1)c1ccccc1 (stereo not given)", "13.5 µM"),
    ("CCCC(=O)Nc1ncnc2c1ncn2C1OC2COP(=O)(O)OC2C1OC(=O)CCC (stereo not given)", "> 1000 µM"),
]

----------
- Test system: SNB-75 CNS
- run.description: NCI tumour cell line growth inhibition, 48 h

# compound, target.or.system, limit.qualifier, TGI [µM]
records = [
    ("COC(=O)C(C(=O)C(=O)Nc1ccc([N+](=O)[O-])cc1)c1nc2cc(C)c(C)cc2[nH]c1=O (stereo not given)", "SNB-75 CNS", ">", 100),
    ("CCOC(=O)c1nc2cc(C(F)(F)F)ccc2nc1Oc1ccc(C(=O)OC)cc1", "SNB-75 CNS", ">", 100),
    ("O=C(/C=C/c1ccc(O)cc1)c1cc(O)cc(O)c1", "SNB-75 CNS", "=", 39.9),
    ("CN1CCc2cc(O)c3cc2C1Cc1ccc(cc1)Oc1cc(ccc1O)CC1c2c(cc4c(c2O3)OCO4)CCN1C (stereo not given)", "SNB-75 CNS", "=", 39.4),
    ("Cc1ccc(C(CC(=O)c2ccccc2)C(C(=O)c2ccccc2)C(c2ccc(C)cc2)C2C(=O)NC(=S)NC2=O)cc1 (stereo not given)", "SNB-75 CNS", ">", 50),
]

----------
- System: CAKI-1 renal
- run.description: NCI tumour cell line growth inhibition, 48 h
Where a SMILES comes first, the peptide text is derived from it. [ ]: non-standard residue; d: D form. The star is where a group is joined. ξ: configuration not given here. ξW = NC(Cc1c[nH]c2ccccc12)C(=O)O; X30 = O=C(O)[C@H]1CCC[C@H]1N*; ξF = NC(Cc1ccccc1)C(=O)O; Boc = CC(C)(C)OC(=O)*; ξK = NCCCCC(N)C(=O)O; ξT = CC(O)C(N)C(=O)O; OBn = c1ccc(CO*)cc1; tBu = CC(C)(C)*
Listing: TGI of selected compounds

# compound, TGI
rows = [
    ("Cc1n(-c2ccccc2)c2c([n+]1Cc1ccc([N+](=O)[O-])cc1)C(=O)c1ccccc1C2=O", "39.7 µM"),
    ("CC(OC(C)(C)C)C(NC(=O)C(CCCCNC(=O)OC(C)(C)C)NC(=O)C(Cc1c[nH]c2ccccc12)NC(=O)C(N)Cc1ccccc1)C(=O)NC(Cc1ccccc1)C(=O)N[C@@H]1CCC[C@@H]1C(=O)O (stereo partly drawn) (H-[ξF][ξW][ξK](Boc)[ξT](tBu)[ξF]-X30)", "> 100 µM"),
    ("CCCCC1=CC1(C#N)[N+](=O)[O-] (stereo not drawn)", "> 100 µM"),
    ("Cc1cn2c(/C=N/N=C(N)N)c(-c3cc(Cl)sc3Cl)nc2s1", "26 µM"),
    ("Cc1ccc(S(=O)(=O)NC(=O)C#CCOC2CCCCO2)cc1 (stereo not drawn)", "> 100 µM"),
    ("Cc1cccc2c1NC(=O)C2(c1ccc(O)cc1)c1ccc(O)cc1", "> 100 µM"),
    ("NN/C(=N\\S(=O)(=O)c1cccc2nsnc12)Nc1ccc(Cl)cc1", "> 100 µM"),
    ("O=[N+]([O-])c1cc(C(F)(F)F)ccc1S(=O)(=O)N[C@@H]1CCCC[C@H]1NS(=O)(=O)c1ccc(C(F)(F)F)cc1[N+](=O)[O-]", "10 µM"),
    ("N#CC(C(=O)C(=O)Nc1ccc(Cl)c(Cl)c1)c1ccc(Cl)cc1 (stereo not drawn)", "> 100 µM"),
    ("CC(=O)OCc1c(C)c2ccccc2n1C(C)=O", "> 100 µM"),
    ("CC(C)C(NC(=O)CNC(=O)C1CCCN1C(=O)C(NC(=O)OC(C)(C)C)C(C)C)C(=O)NCC(=O)OCc1ccccc1 (stereo not drawn) (Boc-VPGVG-OBn; configuration not given here)", "> 100 µM"),
    ("CCCCCCCSCC1OC(n2cnc3c(N)ncnc32)C(O)C1O (stereo not drawn)", "19.5 µM"),
    ("CN/N=C(/CC(=O)c1sc(-n2nc(-c3ccccc3)cc2-c2ccccc2)nc1C)C(=O)Nc1ccc(Cl)c(Cl)c1", "> 100 µM"),
    ("C(=C\\c1nc2ccccc2s1)/c1ccc(N2CCOCC2)s1", "> 100 µM"),
    ("Cc1cn(C2CC(N=[N+]=[N-])C(CO)O2)c(=O)n(CCCCO)c1=O (stereo not drawn)", "> 100 µM"),
    ("O=C(CC(=O)c1cccc([N+](=O)[O-])c1)C(=O)Nc1nc([N+](=O)[O-])cs1", "> 100 µM"),
    ("C=CCCCCn1c2ccccc2c2c(C)c3c[n+](C)ccc3c(C)c21", "39 µM"),
    ("O=C1c2ccccc2CCC1(Br)Br", "3.04 µM"),
]
